Molecular target: M-phase inducer phosphatase 2 (Homo sapiens)
Sequence (P30305 whole entry): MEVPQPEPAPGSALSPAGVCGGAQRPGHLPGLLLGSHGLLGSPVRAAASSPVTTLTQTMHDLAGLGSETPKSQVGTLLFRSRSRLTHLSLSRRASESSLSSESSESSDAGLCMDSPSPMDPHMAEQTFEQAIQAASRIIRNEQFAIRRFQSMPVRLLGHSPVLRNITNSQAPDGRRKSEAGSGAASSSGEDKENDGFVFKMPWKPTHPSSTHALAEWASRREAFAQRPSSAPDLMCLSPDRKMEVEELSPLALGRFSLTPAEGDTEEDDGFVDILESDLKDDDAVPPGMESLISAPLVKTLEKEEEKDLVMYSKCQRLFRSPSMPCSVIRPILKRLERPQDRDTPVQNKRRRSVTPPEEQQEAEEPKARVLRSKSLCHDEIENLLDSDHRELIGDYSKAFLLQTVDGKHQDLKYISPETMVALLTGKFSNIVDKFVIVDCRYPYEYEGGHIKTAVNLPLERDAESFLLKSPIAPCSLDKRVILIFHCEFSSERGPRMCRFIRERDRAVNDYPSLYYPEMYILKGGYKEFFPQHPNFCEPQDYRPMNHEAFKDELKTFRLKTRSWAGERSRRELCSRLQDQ
pIC50: −log10 of the molar value.
quantity-measured: pIC50

CCOC(=O)[C@]1(C)CCC[C@@]2(C)[C@@H]3CC[C@@]4(C)C[C@]3(CC[C@@H]21)[C@H](Br)C4=O
5.48
C[C@@]12CC[C@@H]3[C@@](CC[C@H]4[C@@]3(C)CCC[C@@]4(C)C(=O)O)(CC1=O)C2
5.68
C[C@@]12CC[C@@H]3[C@@](CC[C@H]4[C@@]3(C)CCC[C@@]4(C)C(=O)OCc3ccccc3I)(CC1=O)C2
5.49

###

Biological target: Tyrosine-protein phosphatase non-receptor type 1 (Homo sapiens)
Sequence (whole entry): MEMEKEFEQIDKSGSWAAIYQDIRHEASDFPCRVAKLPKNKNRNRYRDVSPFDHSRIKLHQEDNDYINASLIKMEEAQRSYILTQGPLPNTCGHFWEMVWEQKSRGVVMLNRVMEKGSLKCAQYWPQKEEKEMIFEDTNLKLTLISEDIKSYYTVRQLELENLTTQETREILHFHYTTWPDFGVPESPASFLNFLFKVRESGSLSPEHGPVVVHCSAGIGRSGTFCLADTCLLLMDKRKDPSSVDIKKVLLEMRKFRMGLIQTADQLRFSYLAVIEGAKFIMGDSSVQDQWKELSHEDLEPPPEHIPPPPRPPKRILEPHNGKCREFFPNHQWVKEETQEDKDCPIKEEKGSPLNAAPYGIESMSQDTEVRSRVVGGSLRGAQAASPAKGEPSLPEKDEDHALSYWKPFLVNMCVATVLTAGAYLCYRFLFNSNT
Assay: Inhibition of PTP1B (unknown origin) at 10 micromol/L by DAS-ELISA
Conditions: dose 10.0 µmol/L
quantity-measured: inhibition (%)

C[C@@]12CC[C@@H]3[C@@](CC[C@H]4[C@@]3(C)CCC[C@@]4(C)C(=O)OCCBr)(CC1=O)C2
73.6
C[C@@]12CC[C@@H]3[C@@](CC[C@H]4[C@@]3(C)CCC[C@@]4(C)C(=O)OCc3ccccc3Br)(CC1=O)C2
50.3
CCOC(=O)[C@]1(C)CCC[C@@]2(C)[C@@H]3CC[C@@]4(C)C[C@]3(CC[C@@H]21)C/C4=N\O
50.8
C[C@@]12CC[C@@H]3[C@@](CC[C@H]4[C@@]3(C)CCC[C@@]4(C)C(=O)O)(CC1=O)C2 [ISOSTEVIOL]
63.6
C[C@@]12CC[C@@H]3[C@@](CC[C@H]4[C@@]3(C)CCC[C@@]4(C)C(=O)OCc3cccc(C#N)c3)(CC1=O)C2
76

I = CCOC(=O)[C@]1(C)CCC[C@@]2(C)[C@@H]3CC[C@@]4(C)C[C@]3(CC[C@@H]21)C/C4=N\OC
II = COC(=O)[C@]1(C)CCC[C@@]2(C)[C@@H]3CC[C@@]4(C)C[C@]3(CC[C@@H]21)C/C4=N\O
Task item: // max by inhibition over [ I , II ] Please respond with the label that marks your chosen entry.
Reply: I
(I: 71.5%, II: 22%)
